Experiment: Solubility of free base and salt forms
Format: physicochemical
Settings: Medium 100 mM phosphate; pH Buffer 6.8; 2 h
measurementLabel: Solubility (2 h) (mg/mL)

a: CCC(CC)c1cc(N[C@H]2CC[C@H](N)C2)n2nccc2n1 [Tosylate III]
b: CCC(CC)c1cc(N[C@H]2CC[C@H](N)C2)n2nccc2n1 [Camsylate II]
c: CCC(CC)c1cc(N[C@H]2CC[C@H](N)C2)n2nccc2n1 [Oxalate III]
## Task Using measured Solubility (2 h), arrange the compounds from above in descending sequence. # respond with the labels, arranged in the requested order
## Result c, b, a

----------
Test: Solubility of free base and salt forms
Assay type: physicochemical
Conditions: Medium FaSSGF; pH Buffer 1.6; 24 h
measurementLabel: Solubility (24 h)

>  <molecule>
CCC(CC)c1cc(N[C@H]2CC[C@H](N)C2)n2nccc2n1 [Citrate I]

>  <Solubility (24 h)>
>127 mg/mL

$$$$
>  <molecule>
CCC(CC)c1cc(N[C@H]2CC[C@H](N)C2)n2nccc2n1 [Camsylate II]

>  <Solubility (24 h)>
>380 mg/mL

$$$$
>  <molecule>
CCC(CC)c1cc(N[C@H]2CC[C@H](N)C2)n2nccc2n1 [Oxalate III]

>  <Solubility (24 h)>
>392 mg/mL

$$$$

## Task Return Solubility (24 h) for the following molecule: CCC(CC)c1cc(N[C@H]2CC[C@H](N)C2)n2nccc2n1 [Tosylate III]
## Result >129 mg/mL

## Task In one line, give reported Solubility (24 h) of the entry CCC(CC)c1cc(N[C@H]2CC[C@H](N)C2)n2nccc2n1 [Fumarate III] .
## Result >48 mg/mL
